- target or system: T1, human IL-1α (human, UniProt P01583 113-271)
- T1 construct: also called IL-1alpha; hIL-1α
- T1 sequence (looked up): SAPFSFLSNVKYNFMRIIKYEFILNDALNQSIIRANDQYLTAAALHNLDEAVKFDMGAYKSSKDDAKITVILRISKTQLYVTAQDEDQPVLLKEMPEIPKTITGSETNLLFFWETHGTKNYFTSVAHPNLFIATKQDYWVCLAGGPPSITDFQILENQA
- experimental protocol: Table 62 IC50; RBA presumed
pIC50: −log10 of the molar value.
outcome measure: pIC50

Known results for binders:
ABT1-141-53 (other, VK dAb) VL: DIQMTQSPSSLSASVGDRVTITCRASQWIQKQLAWYQLKPGKTPKLLIFSSSYLQSGVPSRFSGSGSGTDFTLTISSLQPEDFATYYCQQHLRVPMTFGQGTKVEIKR; 7.30
ABT1-95-114 (other, VK dAb) VL: DIQMTQSPSSLSASVGDRVTITCRASQPIVRNLRWYQQKPGKAPKLLIYSSSYLEVGVPSRFSGSGSGTDFTLTISSLQPEDFATYHCQQGYRWPVTFGQGTKVEIKR; 9.70
ABT1-141-21 (other, VK dAb) VL: DIQMTQSPSSLSASVGDRVTITCRASQWIQKQLAWYQQKPGKAPKLLIYSSSYLQSGVPSRFSGSGSGTDFTLTISSLQPEDFATYYCQQQMSSPRTFGQGTKVEIKR; 7.22
ABT1-95-93 (other, VK dAb) VL: DIQMTQSPSSLSASVGDRVTITCRASQPIVRNLRWYQQKPGKAPKLLIYSSSILEPGVPSRFSGGGSGTDFTLTISSLQPEDFATYHCQQGYRWPVTFGQGTKVEIKR; 10.00

1 = ABT1-95-95 (other, VK dAb) VL: DIQMIQSPSSLSASVGDRVTITCRASQPIVRNLRWYQQKPGKAPKLLIYSSSQLEPGVPSRFSGSGSGTDFTLTISSLQPEDFATYHCQQGYRWPVTFGQGTKVEIKR
2 = ABT1-141-22 (other, VK dAb) VL: DIQMTQSPSSLSASVGDRVTITCRASQWIQKQLAWYQQKPGKAPKLLIYSSSYLQSGVPSRFSGSGSGTDFTLTISSLQPEDFATYYCQQQMAPPRTFGQGTKVEIKR
Enquiry: Lab note: check whether 1 or 2 has the lower measured pIC50. Could you answer with the label of the item you picked?
Return: 2
(2: 7.52, 1: 9.52)

a = ABT1-95-54 (other, VK dAb) VL: DIQMTQSPSSLSASVGDRVTITCRASQPIVTNLRWYQQKPGKAPKLLIYSSSYLEPGVPSRFSGSGSGTDFTLTISSLQPEDFATYHCQQGYRWPVTFGQGTKVEIKR
b = ABT1-95-77 (other, VK dAb) VL: DIQMTQSPSSLSASVGDRVTITCRASQPIVRNLRWYQQKPGKAPELLIYSGSYLEPGVPSRFSGSGSGTDFTLTISSLQPEDFATYHCQQGYRWPVTFGQGTKVEIKR
Enquiry: Lab note: check whether a or b has the lower measured pIC50. Could you answer with the label of the item you picked?
Return: a
(a: 9.00, b: 9.52)

P = ABT1-159 (other, VK dAb) VL: DIQMTQSPSSLSASVGDRVTITCRASSPIGMDLFWYQQKPGKAPRLLIDGVSGLQSGVPSRFSGSGSGTDFTLTISSLQPEDFATYYCSQHWPAPLTFGQGTKVEIKR
Q = ABT1-95-69 (other, VK dAb) VL: DIQMTQSPSSLSASVGDRVTITCRASQPIVRNLRWYQQKPGKAPKLLIYKSSYLEPGVPSRFSGSGSGTDFTLTISSLQPEDFATYHCQQGYRWPVTFGQGTKVEIKR
R = ABT1-95-50 (other, VK dAb) VL: DIQMTQSPSSLSASVGDRVTITCRASQPIPRNLRWYQQKPGKAPKLLIYSSSYLEPGVPSRFSGSGSGTDFTLTISSLQPEDFATYHCQQGYRWPVTFGQGTKVEIKR
Enquiry: Order the records, beginning with the lowest pIC50 and ending with the highest. Reply: labels, ordered per the request.
Return: P, Q, R
(P: 6.70, Q: 9.00, R: 9.30)
